tested on: UACC-62 melanoma; assay: NCI tumour cell line growth inhibition, 48 h
outcome.measure: TGI (µM)
A number alone suffices; assume µM.

Some solved cases for reference:
{"compound": "COc1cc(C(=O)O/N=C(\\N)Cc2cccc3ccccc23)cc(OC)c1OC", "measured.target": "UACC-62 melanoma", "measurement.units": "µM", "TGI": 6.73}
{"compound": "O=C1/C(=C/c2ccc(Cl)c(Cl)c2)CNC/C1=C\\c1ccc(Cl)c(Cl)c1", "measured.target": "UACC-62 melanoma", "measurement.units": "µM", "TGI": 29.1}
{"compound": "CN(C)c1ccc(Nc2c3ccccc3nc3cc(NC(=O)CCN4CCCC4)ccc23)cc1", "measured.target": "UACC-62 melanoma", "measurement.units": "µM", "TGI": 2.11}
{"compound": "C=C(C)[C@@H]1CC[C@]2(C(=O)O)CC[C@]3(C)[C@H](CC[C@@H]4[C@@]5(C)C/C(=C/c6cccc(I)c6)C(=O)C(C)(C)[C@@H]5CC[C@]43C)[C@@H]12", "measured.target": "UACC-62 melanoma", "measurement.units": "µM", "TGI": 4.16}
{"compound": "COc1cc(S(=O)(=O)Nc2ccc(-c3csc(N4C(=O)C(C)SC4c4ccccc4)n3)cc2)ccc1Cl (stereo not given)", "measured.target": "UACC-62 melanoma", "measurement.units": "µM", "TGI": 52.8}
{"compound": "CCCCCCCCCCCCCCCC(=O)OCC1OC(OC)C(NC(=O)N(CCCl)N=O)C(O)C1O (stereo not given)", "measured.target": "UACC-62 melanoma", "measurement.units": "µM", "TGI": 15}
{"compound": "CCCCCCCCNC(C)C(O)c1ccc(SC(C)C)cc1 (stereo not given)", "measured.target": "UACC-62 melanoma", "measurement.units": "µM", "TGI": 2.95}

Which TGI is reported for this compound? Cc1ccc(-c2cc(-c3ccc(C)cc3)nc(N3CCN(CCNc4ccnc5cc(Cl)ccc45)CC3)n2)cc1
12.6

---

tested on: SK-MEL-2 melanoma; assay: NCI tumour cell line growth inhibition, 48 h
outcome.measure: log10 of TGI (log10 of the value in µM)
Scale: decimal log of TGI, TGI in µM.

Solved entries (count: 4):
{"compound": "CCOC(=O)c1ccc(N(C=O)CCC(=O)CCl)cc1", "outcome.measure": "log10 of TGI", "recorded.result": 0.33}
{"compound": "O=c1c2c(=NCCN3CCCC3)cc3c(=O)n(CCCN4CCOCC4)c(=O)c4ccc(c(O)n1CCCN1CCOCC1)c2c4-3", "outcome.measure": "log10 of TGI", "recorded.result": -0.06}
{"compound": "O=C1/C(=C/c2ccc(Cl)cc2)CCC1CN1CCOCC1 (configuration not stated)", "outcome.measure": "log10 of TGI", "recorded.result": 1.53}
{"compound": "CCN(CC)C1Oc2cc3c(cc2C(c2cccc(OC)c2O)C1C)OCO3 (configuration not stated)", "outcome.measure": "log10 of TGI", "recorded.result": 1.44}

Which log10 of TGI is reported with SK-MEL-2 melanoma for this entry: CN(C)CC1CCCCCC(Br)C1=O (configuration not stated) ?
1.74

Return log10 of TGI measured with SK-MEL-2 melanoma given this compound: CN(C)c1ccc2cc3ccc(N(C)C)cc3nc2c1
1.34

Fill in the recorded log10 of TGI for this compound, with SK-MEL-2 melanoma as test system: COc1cc(-c2nc(-c3ccc(-c4nc5ccc(F)cc5[nH]4)cc3)no2)cc(OC)c1OC
1.13

Short answer please: log10 of TGI, SK-MEL-2 melanoma, entry Clc1ccc2nc(Cl)c3ccccc3c2c1
1.78

Query the reported log10 of TGI for SK-MEL-2 melanoma; item: CC(=O)c1[nH]c(Nc2ccc(C)cc2)c(C(=S)Nc2ccccc2)c1N
1.50

Find log10 of TGI (SK-MEL-2 melanoma) for the entry Cc1ccc(-c2cc(-c3ccc(C)cc3)nc(N3CCN(CCNc4ccnc5cc(Cl)ccc45)CC3)n2)cc1
1.31

Given the entry Cc1c2oc3c(C)cc(F)c(C(=O)NC4C(=O)NC(C(C)C)C(=O)N5CCCC5C(=O)N(C)CC(=O)N(C)C(C(C)C)C(=O)OC4C)c3nc-2c(C(=O)NC2C(=O)NC(C(C)C)C(=O)N3CCCC3C(=O)N(C)CC(=O)N(C)C(C(C)C)C(=O)OC2C)c(N)c1=O (configuration not stated) , what log10 of TGI was observed with SK-MEL-2 melanoma?
-0.18

Please tell me: log10 of TGI of CN(C)CCNC(=O)c1c2ccccc2cc2ccccc12 , system SK-MEL-2 melanoma?
1.57

Record C[C@@H](Oc1cc(-n2cnc3ccc(OCC4CCN(C)CC4)cc32)sc1C(N)=O)c1ccccc1Cl : what is its log10 of TGI with SK-MEL-2 melanoma?
0.62
